tested on: Bacillus subtilis; assay: cleaved RNA product abundance (RNA/gDNA barcode ratio) relative to median wild-type variant (ratio to wild type); higher = more accumulation of the downstream cleavage product; details: experiment (reporter, strain, medium): exp 2b: truncated aprE reporter, strain BJT200; cleavage site: cggR-gapA (positions -7 to +36 mutated)
The entries below come with measured cleaved RNA product abundance values attached.
# respond with the number and nothing more

Solved entries:
ACAGACGAAGGAGCCGCAAAGAAGTTATTAAGGGATGTATAATCTCTCAATATAAATATCTCTCACTTATTTAAA : 0.708
ACAGACGAAGGAGCCGCAAAGAAGTTATTAAGGGATCAATAATCCCTAAATATAAATATCTCTCACTTATTTAAA : 0.551
ACAGACGAAGGAGCCGCAAAGAAGTTATTAAGGGATGAATAACCCCTCAAAATAAATATCTCTCACTTATTTAAA : 0.208

Let me check: ACAGACGAAGGAGCCGCAAAGAAGTTATTAAGGGATGAATAATCCCTAAATATAGATATCTCTCACTTATTTAAA , system Bacillus subtilis, measured cleaved RNA product abundance is 0.495

----------
system: Bacillus subtilis; test: cleaved RNA product abundance (RNA/gDNA barcode ratio) relative to median wild-type variant (ratio to wild type); higher = more accumulation of the downstream cleavage product; conditions: experiment (reporter, strain, medium): exp 2b: truncated aprE reporter, strain BJT200; cleavage site: cggR-gapA (positions -7 to +36 mutated)
rule met means recorded cleaved RNA product abundance is 0.1 or above; rule not met means it is below 0.1.

Examples with answers:
ACAGACGAAGGAGCCGCAAAGAAGTTATTAAGTGATGAATAATCCCTCAATATAAATCTCTCTCACTTATTTAAA : rule met
ACAGACGAAGGAGCCGCAAAGAAGTTATTAAGGGATGAATAAACCTTCAATATAAATATCTCTCACTTATTTAAA : rule not met
ACAGACGAAGGAGCCGCAAAGAAGTTATTAAAGGATAAATAATCCCTCAATATAAATATCTCTCACTTATTTAAA : rule met

State whether the measured cleaved RNA product abundance reaches 0.1, counting equality as reaching it, for ACAGACGAAGGAGCCGCAAAGAAGTTATTAAGGGATGAATAATCCCTCAGTATAAATATCTCTCACTTATTTAAA rule met

State whether the measured cleaved RNA product abundance reaches 0.1, counting equality as reaching it, for ACAGACGAAGGAGCCGCAAAGAAGATATTAAGGGATGAATAATCCCTCAATTTAAATATCTCTCACTTATTTAAA rule met

State whether the measured cleaved RNA product abundance reaches 0.1, counting equality as reaching it, for ACAGACGAAGGAGCCGCAAAGAAGTTATTAAGGCATGAAAAATCCCTCAATATAAATATCTCTCACTTATTTAAA rule not met

State whether the measured cleaved RNA product abundance reaches 0.1, counting equality as reaching it, for ACAGACGAAGGAGCCGCAAAGAAGTTATTAAGGGATAAAAAATCCATCAATATAAATATCTCTCACTTATTTAAA rule met

State whether the measured cleaved RNA product abundance reaches 0.1, counting equality as reaching it, for ACAGACGAAGGAGCCGCAAAGAAGTTATTAAGGGATGAATAATCCTCCAATATAAATATCTCTCACTTATTTAAA rule met

State whether the measured cleaved RNA product abundance reaches 0.1, counting equality as reaching it, for ACAGACGAAGGAGCCGCCAAGAAGTTATTAAGGGATGAATAATCCCTCAATATAAATATCTCTCACTTATTTAAA rule met

State whether the measured cleaved RNA product abundance reaches 0.1, counting equality as reaching it, for ACAGACGAAGGAGCCGCAAAGAAGTTATTAAAGGATGAATAATCCCTCAATACAAATATCTCTCACTTATTTAAA rule met

State whether the measured cleaved RNA product abundance reaches 0.1, counting equality as reaching it, for ACAGACGAAGGAGCCGCAAAGAAGTTATTAATGGATGAATAATCCCTCAGTATAAATATCTCTCACTTATTTAAA rule not met

State whether the measured cleaved RNA product abundance reaches 0.1, counting equality as reaching it, for ACAGACGAAGGAGCCGCAAAGAAGTTCTTAAGGGATGAATAATCCTTCAATATAAATATCTCTCACTTATTTAAA rule met

State whether the measured cleaved RNA product abundance reaches 0.1, counting equality as reaching it, for ACAGACGAAGGAGCCGCAAAGAAGTTATTAAGGGATGAATAATCACTCAAAATAAATATCTCTCACTTATTTAAA rule not met

----------
test system: Bacillus subtilis; assay: cleaved RNA product abundance (RNA/gDNA barcode ratio) relative to median wild-type variant (ratio to wild type); higher = more accumulation of the downstream cleavage product; settings: experiment (reporter, strain, medium): exp 4a: truncated aprE reporter, strain BJT201 with 2% xylose (RNase J1 expressed); cleavage site: cggR-gapA (positions -7 to +36 mutated)
t means recorded cleaved RNA product abundance is 0.3 or above; f means it is below 0.3.

ACAGACGAAGGAGCCGCAAAGAAGTTATTAAGGGACGAATAATCAATCAATATAAATATCTCTCACTTATTTAAA : f
ACAGACGAAGGAGCCGCAAAGAAGCTATTAAGGGATGAATAATCCCTCAATTTAAATATCTCTCACTTATTTAAA : f
ACAGACGAAGGAGCCGCAAAGAAGTTACTAAGGGATGAACAATCCCTCAATATAAATATCTCTCACTTATTTAAA : f
ACAGACGAAGGAGCCGCAAAGAAGTTATTAAGTGATGAATAATCCCTCAATACAAATATCTCTCACTTATTTAAA : f
ACAGACGAAGGAGCCGCAAATAAGTTATAAAGGGATGAATAATCCCTCAATATAAATATCTCTCACTTATTTAAA : t

We now examine a further sequence.
State whether the measured cleaved RNA product abundance reaches 0.3, counting equality as reaching it, for ACAGACGAAGGAGCCGCAAAGAATTTATTAAGGGATGAATAATCCCTCAATATAAACATCTCTCACTTATTTAAA t

----------
test system: Bacillus subtilis; assay: cleaved RNA product abundance (RNA/gDNA barcode ratio) relative to median wild-type variant (ratio to wild type); higher = more accumulation of the downstream cleavage product; conditions: experiment (reporter, strain, medium): exp 4a: truncated aprE reporter, strain BJT201 with 2% xylose (RNase J1 expressed); cleavage site: cggR-gapA (positions -7 to +36 mutated)
The entries below come with measured cleaved RNA product abundance values attached.
# respond with the number and nothing more

ACAGACGAAGGAGCCGCAAAGAAGTTATTAACGGATAAATAATCCCTCAATATAAATATCTCTCACTTATTTAAA : 0.188
ACAGACGAAGGAGCCGCAAACAAGTTATTAAGGGATGAATAATCCCTCAACATAAATATCTCTCACTTATTTAAA : 0.25
ACAGACGAAGGAGCCGCAAAGAAGTTATTAAGGGATGAATAATCCCTAAATATAGATATCTCTCACTTATTTAAA : 0.551
ACAGACGAAGGAGCCGCAAAGAAGTTATTAAGGGATTAATAATCCCTGAATATAAATATCTCTCACTTATTTAAA : 0.768
ACAGACGAAGGAGCCGCAAAGAAGTTATTAAGGGATGAATAATCCATTAATATAAATATCTCTCACTTATTTAAA : 0.688
ACAGACGAAGGAGCCGCAAAGAAGTTATCATGGGATGAATAATCCCTCAATATAAATATCTCTCACTTATTTAAA : 0.262

GET /value?item= ACAGACGAAGGAGCCGCAAAGAAGTAATTAATGGATGAATAATCCCTCAATATAAATATCTCTCACTTATTTAAA &field=cleaved RNA product abundance returns 0.121

GET /value?item= ACAGACGAAGGAGCCGCAAAGAAGTTATTAACGGCTGAATAATCCCTCAATATAAATATCTCTCACTTATTTAAA &field=cleaved RNA product abundance returns 0.0788

GET /value?item= ACAGACGAAGGAGCCGCAAGAAGTTATTAAGGGATGAATAATCCCTCAATATAAATATCTCTCACTTATTTAAAG &field=cleaved RNA product abundance returns 0.931

GET /value?item= ACAGACGAAGGAGCCGCAAAGAAGTTATTAAGGGATGAATAATCCTTCAATATAAACATCTCTCACTTATTTAAA &field=cleaved RNA product abundance returns 0.33

GET /value?item= ACAGACGAAGGAGCCGCAAAGAAGTTACTAAGGGATGAATAATCACTCAATATAAATATCTCTCACTTATTTAAA &field=cleaved RNA product abundance returns 0.177

GET /value?item= ACAGACGAAGGAGCCGCAAAGAAGTTATTAAGGGATGAATAATACCTCAATATAAAAATCTCTCACTTATTTAAA &field=cleaved RNA product abundance returns 0.179

GET /value?item= ACAGACGAAGGAGCCGCAAAGAAGTTATTAAGGGATGAATGATCCCACAATATAAATATCTCTCACTTATTTAAA &field=cleaved RNA product abundance returns 0.101
